# test.system: EBOV GP ectodomain residues 1-636 (GPec) (Zaire ebolavirus, strain  …, UniProt Q05320)

binder	binding result
5.6.c2961 (antibody, V domains shown) VH: QVQLQESGPGLVKPSQTLSLTCTVSGDSISSGDYYWNWIRHHPGKGLEWLGYIYYSGSSDYNPSLKSRVTISVDTSKNHFSLKLSSVTAADTAIYYCARGSVSVLFGELDVWGQGTTVTVSS VL: EIVLTQSPGTLSLSPGERATLSCRASQSVSNNFLAWYQQIRGQAPRLLIYGVSHRATGIPDRFSGSGSGTDFTLTISGLEPEDFALYYCQQYGRSPYTFGQGTRLEIK	binds
5.6.c3557 (antibody, V domains shown) VH: QVQLVESGGGVVQPGRSLRLSCAASGFSITNYAMHWVRQAPGRGLEWVALISYDGINQYYADSVKGRFTFSRDNSKNTLYLQMNSLRLDDTAVYYCARDPASPSDIFQDAFDIWGQGTTVIVSS VL: DIQMTQSPSSLSASVGDRVTITCRASQDISGWLAWYQQKPEKAPRSLIYATSSLQSGVPSRFSGSGSGTDFTLTISSLQPEDFATYYCQQYHSYPLTFGGGTKIQIK	binds
